Catalogue of IC50 values
System: MDA-MB-231
Experiment: Cytotoxicity against human MDA-MB-231 cells by MTT method
Type: cell-based
Give the number; µg/mL is assumed, so skip it.

Before answering, review these 2 worked examples.
INSERT INTO assay_data (molecule, u, quantitative_result) VALUES
  ('C[C@@]12CC([C@@]3(O)CC[C@H]4[C@@H]5C[C@H]6O[C@]67[C@@H](O)C=CC(=O)[C@]7(C)[C@H]5CC[C@@]43C)[C@@H](C1)OC(=O)[C@]2(C)O (some centres not stated) [ANOMANOLIDE A]', 'µg/mL', 1.37),
  ('C[C@@]12CC([C@@]3(O)[C@H](O)C[C@H]4[C@@H]5C[C@H]6O[C@]67[C@@H](O)C=CC(=O)[C@]7(C)[C@H]5CC[C@@]43C)[C@@H](C1)OC(=O)[C@]2(C)O (some centres not stated) [ANOMANOLIDE C]', 'µg/mL', 1.58);

For the molecule shown here, CC1=C(C)[C@H](O)[C@H]([C@@H](C)[C@@]23O[C@@H]2C[C@H]2[C@@H]4C[C@H]5O[C@]56[C@@H](O)C=CC(=O)[C@]6(C)[C@H]4CC[C@@]23C)OC1=O [23-HYDROXYTUBOCAPSANOLIDE A] , give the reported IC50.
1.19

CC1=C(C)C(=O)O[C@@H]([C@@H](C)[C@@]2(O)CC[C@H]3[C@@H]4C[C@H]5O[C@]56[C@@H](O)C=CC(=O)[C@]6(C)[C@H]4CC[C@@]32C)C1 , same question.
0.99

###

Assay: Cytotoxicity against human Hep3B cells by MTT method
Format: cell-based, Hep 3B2
Mark fulfilled only when IC50 stays strictly below 7 µg/mL. Values equal to the cut-off are not fulfilled.

Is IC50 of CC1=C(CO)C(=O)O[C@@H]([C@@H](C)[C@H]2CC[C@H]3[C@@H]4C[C@H]5O[C@]56[C@@H](O)C=CC(=O)[C@]6(C)[C@H]4CC[C@]23C)C1 [WITHAFERIN A] strictly below 7 µg/mL?
fulfilled

Now consider CC1=C(C)C(=O)O[C@@H]([C@](C)(O)[C@@]2(O)CC[C@H]3[C@@H]4C[C@H]5O[C@]56[C@@H](O)C=CC(=O)[C@]6(C)[C@H]4CC[C@@]32C)C1 .
fulfilled

Can you check CC1=C(C)C(=O)O[C@@H]([C@@H](C)[C@@]2(C)C3=C(C[C@H]2O)[C@@H]2C[C@H](O)[C@]4(O)[C@@H](O)C=CC(=O)[C@]4(C)[C@H]2CC3)C1 [TUBOCAPSENOLIDE F] next?
not fulfilled

And what about the molecule CC1=C(C)C(=O)O[C@@H]([C@](C)(O)[C@@]23O[C@@H]2C[C@H]2[C@@H]4C[C@H]5O[C@]56[C@@H](O)C=CC(=O)[C@]6(C)[C@H]4CC[C@@]23C)C1 [20-HYDROXYTUBOCAPSANOLIDE A] ?
fulfilled

###

Measured log10(IC50) by item
Test system: MDA-MB-231
Experiment: Cytotoxicity against human MDA-MB-231 cells by MTT method
Format: cell-based
Units before log transform: µg/mL; reported quantity: IC50; transform: log10.

The cases that follow already have their log10(IC50) on record.
INSERT INTO assay_data (compound, quantitative_result) VALUES
  ('CC1=C(C)C(=O)O[C@@H]([C@](C)(O)[C@@]2(O)CC[C@H]3[C@@H]4C[C@H]5O[C@]56[C@@H](O)C=CC(=O)[C@]6(C)[C@H]4CC[C@@]32C)C1', -0.15),
  ('CC1=C(C)C(=O)O[C@@H]([C@](C)(O)[C@@]23O[C@@H]2C[C@H]2[C@@H]4C[C@H]5O[C@]56[C@@H](O)C=CC(=O)[C@]6(C)[C@H]4CC[C@@]23C)C1 [20-HYDROXYTUBOCAPSANOLIDE A]', 0.00),
  ('CC1=C(C)C(=O)O[C@@H]([C@@H](C)[C@@]23O[C@@H]2C[C@H]2[C@@H]4C[C@H]5O[C@]56[C@@H](O)C=CC(=O)[C@]6(C)[C@H]4CC[C@@]23C)C1 [TUBOCAPSANOLIDE A]', -0.66),
  ('COc1cccc2c1C(=O)c1c(O)c3c(c(O)c1C2=O)C[C@@](O)(C(=O)CO)C[C@@H]3O[C@H]1C[C@H](N)[C@H](O)[C@H](C)O1 [DOXORUBICIN]', -0.72),
  ('CC1=C(CO)C(=O)O[C@@H]([C@@H](C)[C@H]2CC[C@H]3[C@@H]4C[C@H]5O[C@]56[C@@H](O)C=CC(=O)[C@]6(C)[C@H]4CC[C@]23C)C1 [WITHAFERIN A]', -1.70),
  ('CC1=C(C)C(=O)O[C@@H]([C@@H](C)[C@@]2(O)CC[C@H]3[C@@H]4C[C@H](O)[C@]5(O)[C@@H](O)C=CC(=O)[C@]5(C)[C@H]4CC[C@@]32C)C1', 1.13),
  ('C[C@@]12CC([C@@]3(O)CC[C@H]4[C@@H]5C[C@H](O)[C@]6(O)[C@@H](O)C=CC(=O)[C@]6(C)[C@H]5CC[C@@]43C)[C@@H](C1)OC(=O)[C@]2(C)O (stereo not given in full) [ANOMANOLIDE B]', -0.15);

--- query ---
What value of log10(IC50) has been reported for the following compound? CC1=C(C)C(=O)O[C@@H]([C@@H](C)[C@@]2(C)C3=C(C[C@H]2O)[C@@H]2C[C@H](O)[C@]4(O)[C@@H](O)C=CC(=O)[C@]4(C)[C@H]2CC3)C1 [TUBOCAPSENOLIDE F]
0.92
